# Tested on: BJ human normal fibroblast cells
# PROCEDURE TEXT: MTT cell viability assay, BJ normal fibroblasts
# Format: cell-based
# EXPERIMENTAL PARAMETERS: Homo sapiens, Fibroblast, MTT test, 24 h treatment
Hi there, I'd appreciate the recorded IC50 for every entry that follows.
Reply with just the number (in µM).

Asked: What IC50 value was documented for this compound, `S=C(NN=Cc1ccc(Br)cc1)Nc1cccc(Cl)c1` ?
Given back: 413

Asked: Also need `COc1ccc(C=NNC(=S)Nc2ccccc2Cl)cc1OC` , thanks.
Given back: 402

Asked: Also need `S=C(NN=Cc1ccc(Cl)c(Cl)c1)Nc1ccccc1Cl` , thanks.
Given back: 129

Asked: Also need `COc1ccc(C=NNC(=S)Nc2ccccc2)cc1OC` , thanks.
Given back: 358

----------
ENDPOINT: melting point

Asked: What melting point value was documented for this compound, `Cc1ccccc1NC(=S)NN=Cc1ccc(Cl)c(Cl)c1` ?
Given back: 200 to 202 °C

Asked: Also need `Cc1ccccc1NC(=S)NN=Cc1ccc(Br)cc1` , thanks.
Given back: 178 to 180 °C

Asked: Also need `S=C(NN=Cc1ccc(Cl)c(Cl)c1)Nc1ccc(Cl)cc1` , thanks.
Given back: 202 to 204 °C

Asked: Also need `COc1ccc(C=NNC(=S)Nc2ccccc2Cl)cc1OC` , thanks.
Given back: 179 to 180 °C

Asked: Also need `S=C(NN=Cc1ccc(Cl)c(Cl)c1)Nc1cccc(Cl)c1` , thanks.
Given back: 210 to 212 °C

Asked: Also need `COc1ccc(C=NNC(=S)Nc2ccc(Cl)cc2)cc1OC` , thanks.
Given back: 200 to 202 °C

----------
Hi there, I'd appreciate the recorded melting point for every entry that follows.

Asked: What melting point value was documented for this compound, `S=C(NN=Cc1ccc(Br)cc1)Nc1ccccc1Cl` ?
Given back: 209 to 211 °C

Asked: Also need `COc1ccc(C=NNC(=S)Nc2ccccc2C)cc1OC` , thanks.
Given back: 205 to 206 °C

Asked: Also need `S=C(NN=Cc1ccc(Cl)c(Cl)c1)Nc1ccccc1Cl` , thanks.
Given back: 210 to 211 °C

Asked: Also need `CC(=NNC(=S)Nc1ccccc1Cl)c1ccccc1` , thanks.
Given back: 115 to 117 °C

Asked: Also need `CNC(=S)NN=C(C)c1ccc(N)cc1` , thanks.
Given back: 170 to 172 °C

Asked: Also need `S=C(NN=Cc1ccc(Br)cc1)Nc1ccc(Cl)cc1` , thanks.
Given back: 182 to 184 °C

Asked: Also need `S=C(NN=Cc1ccc(Br)cc1)Nc1cccc(Cl)c1` , thanks.
Given back: 162 to 164 °C

----------
# System: BJ human normal fibroblast cells
# PROCEDURE TEXT: MTT cell viability assay, BJ normal fibroblasts
# Format: cell-based
# EXPERIMENTAL PARAMETERS: MTT test, 24 h treatment
Hi there, I'd appreciate the recorded IC50 for every entry that follows.
Reply with just the number (in µM).

Asked: What IC50 value was documented for this molecule, `COc1ccc(C=NNC(=S)Nc2ccc(Cl)cc2)cc1OC.[Cl-].[Cl-].[Cu+2]` ?
Given back: 450

Asked: Also need `S=C(NN=Cc1ccc(Br)cc1)Nc1cccc(Cl)c1.[Cl-].[Cl-].[Cu+2]` , thanks.
Given back: 130

Asked: Also need `COc1ccc(C=NNC(=S)Nc2ccccc2)cc1OC.[Cl-].[Cl-].[Cu+2]` , thanks.
Given back: 257

Asked: Also need `COc1ccc(C=NNC(=S)Nc2ccccc2Cl)cc1OC.COc1ccc(C=NNC(=S)Nc2ccccc2Cl)cc1OC.[Cl-].[Cl-].[Cu+2]` , thanks.
Given back: 203

Asked: Also need `S=C(NN=Cc1ccc(Cl)c(Cl)c1)Nc1ccccc1Cl.S=C(NN=Cc1ccc(Cl)c(Cl)c1)Nc1ccccc1Cl.[Cl-].[Cl-].[Cu+2]` , thanks.
Given back: 42.9
